Exercise: state measured pKd for each of the binders provided.
ASSAY SYSTEM: T1, cyno IL-33 N-His (cynomolgus monkey)
T1 chain: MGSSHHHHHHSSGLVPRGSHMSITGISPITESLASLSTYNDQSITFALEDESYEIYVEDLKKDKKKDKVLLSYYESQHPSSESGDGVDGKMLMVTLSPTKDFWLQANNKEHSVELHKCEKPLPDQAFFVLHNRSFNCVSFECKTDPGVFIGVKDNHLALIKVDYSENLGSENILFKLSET
PROTOCOL SUMMARY: SPR Biacore T200, 37 C
Procedure: The binding kinetics of the anti-IL-33 antibody 10C12.38.H6.87Y.58I IgG4 and each anti-IL-33 antibody listed in Table 5 (RG1-RG20) to IL-33 were measured using surface plasmon resonance (SPR) on a BIACORE® T200 instrument (GE Healthcare). […] Antibody binding was measured to human IL-33 (R&D systems, #3625-IL-010/CF) and cyno IL-33 N-His (SEQ ID NO: 317) (Genentech, Inc.). […] After injection, disassociation of the ligand from the antibody was monitored for 10 min in running buffer. […]
Keep in mind that pKd stands for -log10 of concentration in molar terms.

query: Which measured pKd value corresponds to H4H9660P (antibody, V domains shown) VH: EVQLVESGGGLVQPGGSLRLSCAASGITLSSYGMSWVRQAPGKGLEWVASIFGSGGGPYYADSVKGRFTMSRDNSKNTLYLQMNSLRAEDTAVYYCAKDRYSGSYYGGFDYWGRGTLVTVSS VL: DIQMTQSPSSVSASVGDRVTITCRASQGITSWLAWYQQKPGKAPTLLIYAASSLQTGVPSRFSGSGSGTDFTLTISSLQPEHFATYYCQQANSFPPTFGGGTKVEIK ?
result: 8.10

query: Which measured pKd value corresponds to H4H9663P (antibody, V domains shown) VH: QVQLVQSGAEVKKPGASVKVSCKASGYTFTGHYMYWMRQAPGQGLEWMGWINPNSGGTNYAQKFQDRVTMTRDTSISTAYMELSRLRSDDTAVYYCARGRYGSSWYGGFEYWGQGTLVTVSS VL: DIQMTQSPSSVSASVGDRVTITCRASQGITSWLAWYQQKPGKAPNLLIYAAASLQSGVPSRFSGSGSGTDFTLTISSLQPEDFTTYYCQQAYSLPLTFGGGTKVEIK ?
result: 8.99

query: Which measured pKd value corresponds to H4H9666P (antibody, V domains shown) VH: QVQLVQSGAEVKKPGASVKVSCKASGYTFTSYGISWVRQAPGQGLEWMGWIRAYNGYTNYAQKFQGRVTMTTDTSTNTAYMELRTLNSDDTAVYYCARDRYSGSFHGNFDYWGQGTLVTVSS VL: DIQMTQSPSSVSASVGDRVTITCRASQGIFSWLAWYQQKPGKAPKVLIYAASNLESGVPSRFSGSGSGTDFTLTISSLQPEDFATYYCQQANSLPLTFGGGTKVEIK ?
result: 7.32
